Assay: reversal of MRP1-mediated doxorubicin resistance, pilot screen, H69AR cells, doxorubicin co-treatment (AID 601)
Settings: H69AR cells + 2 uM doxorubicin, CellTiter-Glo, 72 h; measured here: viability with 2 uM doxorubicin; at 10 µM; stronger effect = lower value
Listed here: items and their measured viability.
Quantity Name: viability (%)

{"columns": ["Compound", "Reported Result"],
 "data": [
  ["CS(=O)(=O)N1CCc2cc(C(=O)N3CCCCC3)ccc21", 88.5],
  ["CCn1cc(C(=O)O)c(=O)c2cc(F)c(N3CCNCC3)cc21", 88.9],
  ["Nc1cc(N)nc(SCc2ccccc2)n1", 92.4],
  ["O=C(O)c1cccc(NC(=O)C2C3C=CC(C3)C2C(=O)OCC(F)(F)C(F)F)c1 (configuration not stated)", 88.3],
  ["CCC1CCc2c(sc3ncnc(N4CCOCC4)c23)C1 (configuration not stated)", 104],
  ["Cc1ccc2nc(NC(=O)CN(C)S(=O)(=O)c3cccc4nsnc34)sc2c1", 24.2],
  ["Cc1ccc(S(=O)(=O)N2CCN(C(=O)CSc3nnnn3C)C2)cc1", 101],
  ["COc1ccccc1Nc1nc(N)nc(-c2cc3ccccc3o2)n1", 75.7],
  ["Cc1nc(CCNS(=O)(=O)c2cccs2)cs1", 86],
  ["COCCNC(=O)CCCCCN1C(=O)CCC1=O", 84.4],
  ["Cc1nnc(SCc2ccccc2F)n1NCc1cccs1", 89.7],
  ["Cn1c(=O)c2c(nc(CN3CCCCC3)n2CCCc2ccccc2)n(C)c1=O", 81],
  ["Cc1nn(Cc2ccccc2)c2c1C(c1ccncc1)C(C#N)=C(N)O2 (configuration not stated)", 87.7],
  ["CCOCCCNC(=O)C1CCC(CNS(=O)(=O)c2cccc3nsnc23)CC1 (configuration not stated)", 93.6],
  ["Cc1cccnc1NC(=O)CCCN1C(=O)c2ccccc2C1=O", 90],
  ["CC(C)n1nnnc1SCC(=O)Nc1ccccc1N1CCOCC1", 99],
  ["CN(C)c1nc(N(C)C)nc(N(C)C)n1", 99.6],
  ["CCn1cc(C(=O)OCC(=O)OC2CC(C)CCC2C(C)C)c(=O)c2ccc(C)nc21 (configuration not stated)", 46.3],
  ["O=C1c2ccccc2C(=O)N1CCC(=O)N1CCc2ccccc21", 92.7],
  ["O=C(O)CCNC(=O)c1ccccc1", 90.7],
  ["O=C(CSc1nc2ccccc2o1)N1CCN(C(=O)c2ccco2)CC1", 93.3],
  ["CC(=O)O[C@H]1C(=O)[C@]2(C)[C@H]([C@H](OC(=O)c3ccccc3)[C@]3(O)C[C@H](OC(=O)[C@H](O)[C@@H](NC(=O)c4ccccc4)c4ccccc4)C(C)=C1C3(C)C)[C@]1(OC(C)=O)CO[C@@H]1C[C@@H]2O", 81.8],
  ["Cc1cc(=O)[nH]c(SCc2nc3ncccn3c2Br)n1", 91.8],
  ["COc1cccc(Oc2ccc(N)cc2)c1", 81.7],
  ["Cn1c(NC(=O)c2cccc(Cn3cc(Cl)cn3)c2)nc2ccccc21", 68],
  ["CCCS(=O)(=O)N1CCC(C(=O)NCCN2CCCC2)CC1", 86.6],
  ["CC(C)n1nc(C(=O)Nc2nc3ccc(S(C)(=O)=O)cc3s2)c2ccccc2c1=O", 72],
  ["C#CCSc1nc(-c2cccs2)ccc1C#N", 93.9],
  ["COc1cccc(C(=O)Nc2cc(NC(=O)c3ccco3)ccc2OC)c1", 77.8],
  ["COc1ccc(-c2cc3ccc(OCc4nn[nH]n4)cc3oc2=O)cc1", 87.5],
  ["O=C(Nc1cccc2ncccc12)c1ccc2c(c1)OCCO2", 92.1],
  ["N#Cc1c(NCc2ccccc2)ccnc1NCc1cccnc1", 94.3],
  ["N#Cc1cc2c(nc1SCC(=O)Nc1sc3c(c1C#N)CCC3)CCCCC2", 57.4],
  ["CC(=O)[C@H]1CC[C@H]2[C@@H]3CCC4=CC(=O)CC[C@]4(C)[C@H]3[C@H](O)C[C@]12C", 96.6],
  ["Cc1ccc(Cl)cc1N1CCN(C(=O)CN2C(=O)c3cccc4cccc2c34)CC1", 76.3],
  ["Cc1coc(NC(=O)CSc2nc(-c3ccncc3)cc(C(F)(F)F)c2C#N)n1", 70.4],
  ["O=C(Cc1cccs1)NCc1ccc(F)cc1", 94.4]
]}
